I'd appreciate it if you could supply IC50 values for the items below.
biological target: Bcl-2; assay: competition phage ELISA
Sequence (chain, as listed by the source): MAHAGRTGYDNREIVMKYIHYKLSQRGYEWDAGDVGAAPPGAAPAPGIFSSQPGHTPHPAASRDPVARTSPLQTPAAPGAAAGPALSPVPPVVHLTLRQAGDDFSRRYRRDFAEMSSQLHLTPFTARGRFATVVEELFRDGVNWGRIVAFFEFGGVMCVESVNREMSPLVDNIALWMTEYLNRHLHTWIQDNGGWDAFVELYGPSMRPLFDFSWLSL
Numbers only, in nM.

NLWAAQRYGRELRAMSDEFVDSFKKG (M13 phage display: FLAG-26mer-GGGT-g3(249-406)) [Bad BH3 R14A, phage-displayed] = 57
NLWAAQRYGRELRRASDEFVDSFKKG (M13 phage display: FLAG-26mer-GGGT-g3(249-406)) [Bad BH3 M15A, phage-displayed] = 43
NLWAAQRAGRELRRMSDEFVDSFKKG (M13 phage display: FLAG-26mer-GGGT-g3(249-406)) [Bad BH3 Y8A, phage-displayed] = 19

// next entry
q: Could you please provide reported IC50 for NLWAAQRYGRELRRMSDEFVDSFKAG (M13 phage display: FLAG-26mer-GGGT-g3(249-406)) [Bad BH3 K25A, phage-displayed] ? Thanks!
a: 13
